Every entry's value here was drawn from patent US10301280B2.

Assign IC50 to each entry below.
- testedOn: c-kit mutant D816V (Homo sapiens (Human), UniProt P10721, D816V/DEL694-753)
- Sequence (P10721 other isoform, or with tags, fused parts or gaps D816V/del 694-753): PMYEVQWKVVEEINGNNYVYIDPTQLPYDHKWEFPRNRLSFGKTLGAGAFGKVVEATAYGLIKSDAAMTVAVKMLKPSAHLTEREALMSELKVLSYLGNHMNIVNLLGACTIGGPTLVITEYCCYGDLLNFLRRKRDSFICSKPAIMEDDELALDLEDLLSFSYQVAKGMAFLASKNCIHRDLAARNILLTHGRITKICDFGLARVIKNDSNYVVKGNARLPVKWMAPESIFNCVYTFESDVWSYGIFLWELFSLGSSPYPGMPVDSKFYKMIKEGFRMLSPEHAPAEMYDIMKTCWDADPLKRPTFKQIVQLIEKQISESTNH
- protocol: c-Kit mutant D816V biochemical assay (AlphaScreen)
- reportedConditions: c-kit D816V biochemical inhibitory activity

The cases that follow already have their IC50 on record.
moleculeSmiles	IC50
Cc1n[nH]c(C(=O)Nc2cnc3[nH]c(-c4cnn(C5CCNCC5)c4)cc3c2)c1C	0.0001 to 1 µM
CCOc1ncc(-c2cc3cc(NC(=O)c4[nH]nc(C)c4C)cnc3[nH]2)cn1	0.0001 to 1 µM

Each molecule below has a recorded value; state its IC50.
1. Cc1n[nH]c(C(=O)Nc2cnc3[nH]c(-c4cnc(C5CC5)nc4)cc3c2)c1C
2. Cc1cc(-c2cc3cc(NC(=O)c4[nH]nc(C)c4C)cnc3[nH]2)cnc1C
3. Cc1n[nH]c(C(=O)Nc2cnc3[nH]c(-c4cccc(N5CCNCC5)c4)cc3c2)c1C
4. Cc1n[nH]c(C(=O)Nc2cnc3[nH]c(-c4ccnc(N5CCN(C(=O)CC#N)CC5)c4)cc3c2)c1C
5. Cc1[nH]nc(C(=O)Nc2cnc3[nH]c(-c4cccc(N5CCOCC5)c4)cc3c2)c1C
6. Cc1n[nH]c(C(=O)Nc2cnc3[nH]c(-c4cccc5c4OC(F)(F)O5)cc3c2)c1C
7. O=C(Nc1cnc2[nH]c(-c3ccc(F)cc3)cc2c1)c1n[nH]c2c1CCCC2

Result ::
0.0001 to 1 µM
0.0001 to 1 µM
0.0001 to 1 µM
0.0001 to 1 µM
0.0001 to 1 µM
0.0001 to 1 µM
0.0001 to 1 µM
